Give yeast fitness for every item shown.
B1: tRNA (parent)
chain: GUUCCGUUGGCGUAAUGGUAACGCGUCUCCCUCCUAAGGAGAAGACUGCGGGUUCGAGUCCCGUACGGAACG

variants of: B1; experiment: yeast fitness relative to wild type (ratio to wild type); higher = fitter; tRNA-Arg(CCU), competitive growth, 37 C, YPD
Fewer inactive variants are shown than the library holds.
// no unit, no text: just the number

query: What yeast fitness value was documented for this variant, C33A A43U C49A ?
result: 0.591

query: Query (variant): C30G A42U ; field requested: yeast fitness
result: 0.666

query: Return reported yeast fitness; argument: U7G U28C
result: 0.808

query: Recorded yeast fitness of U8C G12C C62U , please.
result: 0.587

query: Reported yeast fitness for C27U U32A : what is it?
result: 0.993

query: Please give the measured yeast fitness for this variant: A20U C62U A65C
result: 0.682

query: # query: yeast fitness of entry U7A G17A
result: 0.731

query: Given the entry G38C U64C , report its measured yeast fitness.
result: 0.803

query: # get_value(readout='yeast fitness', item= C49G U54C )
result: 1.01

query: What does the data say about its yeast fitness? Entry: U2G C5U U32C C55U
result: 0.581

query: Reported yeast fitness for U3C C31U A70U : what is it?
result: 0.865

query: Name the reported yeast fitness value associated with the variant "G17A"
result: 0.835

query: Bench note: what yeast fitness did G23C C30G C46U A65G A70U show?
result: 0.63

query: What does the record list as yeast fitness for U35A A42C C46U ?
result: 0.521

query: Give the measured yeast fitness of C4G C22A C27U G63C .
result: 0.735

query: Would you kindly share the measured yeast fitness for G6A U8C A14U ?
result: 0.564

query: Value lookup for yeast fitness; key = A57G U64C A65C
result: 0.506

query: Suppose we examine the variant G9C A43G ; what yeast fitness value has been reported?
result: 0.706

query: Fill blank: measured yeast fitness of the variant C33U G38C is ____.
result: 0.609

query: Given the entry U2G C24A C46A A69U , report its measured yeast fitness.
result: 0.774

query: Entry U16C A69U : reported yeast fitness = ?
result: 0.998

query: Entry U8C G9C A21C C24G G38A : reported yeast fitness = ?
result: 0.74

query: Given the entry C11U G44A G50A C66G , report its measured yeast fitness.
result: 0.511

query: Request the reported yeast fitness associated with A43C C62A A69C
result: 0.633
